# method: Inhibition of copper-catalyzed autooxidation of ascorbic acid (copper-chelating activity)
# Type: physicochemical
# measurement_setup: read-out: IC50, concentration that inhibited the rate of ascorbic acid oxidation by 50% (copper-chelating activity), FIGS. 3 and 4
Field: IC50. Provide a value for each of the molecules that follow.

CC(C)(Oc1ccc(NC(=O)Nc2ccc(F)c(Cl)c2)cc1)C(=O)Nc1ccccc1C(=O)O	~100 µM

Could you now consider this next molecule?
## Task Endpoint output: IC50 of `CC(C)(Oc1ccc(N(Cc2ccc(Cl)cc2)C(=O)Nc2ccc(Cl)c(Cl)c2)cc1)C(=O)O` . Value?
## Result ~75 µM
